assayProcedure: log P by HPLC on reversed-phase column (C18), EEC Directive 79/831 Annex V.A8
Type: physicochemical
assaySetup: reversed-phase HPLC column (C18), Method A: 40° C., 0.1% aqueous formic acid and acetonitrile
Use 4 as the dividing line for chromatographic logP, with the line itself on the class 1 side and lower values as class 0.

{"compound": "C[Si](C)(C)c1ccccc1Oc1cnc2ccccc2c1 [I.001, 3-[2-(trimethylsilyl)phenoxy]quinoline]", "assignedClass": "class 1"}
{"compound": "Fc1cccc2cc(Oc3ccccc3Br)cnc12", "assignedClass": "class 0"}
{"compound": "CC(=O)COc1ccccc1[Si](C)(C)C [XIV.01, 1-[2-(trimethylsilyl)phenoxy]acetone]", "assignedClass": "class 0"}
{"compound": "Cc1nc2ccccc2cc1Oc1ccc(F)cc1Br", "assignedClass": "class 0"}
{"compound": "Cc1nc2c(F)c(F)ccc2cc1Oc1cccc(F)c1[Si](C)(C)F", "assignedClass": "class 1"}
{"compound": "Brc1ccccc1Oc1cnc2ccccc2c1", "assignedClass": "class 0"}
{"compound": "C[Si]1(c2c(F)cccc2Oc2cnc3ccccc3c2)CCC1", "assignedClass": "class 1"}

* * *

assayProcedure: log P by HPLC on reversed-phase column (C18), EEC Directive 79/831 Annex V.A8
Assay type: physicochemical
assaySetup: Method A: 40° C., 0.1% aqueous formic acid and acetonitrile
Use 5 as the dividing line for logP, with the line itself on the fulfilled side and lower values as not fulfilled.

{"smilesStructure": "CC(C)[Si](C)(C)c1ccccc1Oc1cnc2ccccc2n1", "assignedClass": "fulfilled"}
{"smilesStructure": "Cc1nc2c(F)c(F)ccc2nc1Oc1ccccc1[Si](C)(C)C", "assignedClass": "fulfilled"}
{"smilesStructure": "C[Si](C)(C)c1ccccc1Oc1cnc2nccn2c1", "assignedClass": "not fulfilled"}
{"smilesStructure": "COc1cccc(Oc2cc3ccc(F)c(F)c3nc2C)c1[Si](C)(C)C", "assignedClass": "fulfilled"}
{"smilesStructure": "Cc1nc2ccccc2cc1Oc1cccc(F)c1[Si](C)(C)O", "assignedClass": "not fulfilled"}
{"smilesStructure": "Cc1ccc(Oc2nc3ccc(F)c(F)c3nc2C)c([Si](C)(C)O)c1", "assignedClass": "not fulfilled"}
{"smilesStructure": "C[Si](C)(C)c1c(F)cccc1Oc1cc2ccccc2nc1C1CC1", "assignedClass": "fulfilled"}
{"smilesStructure": "Cc1nc2c(F)c(F)ccc2nc1Oc1ccc(F)cc1[Si](C)(C)C", "assignedClass": "fulfilled"}
{"smilesStructure": "COc1cccc(Oc2cc3ccc(F)c(F)c3nc2C)c1[Si](C)(C)O", "assignedClass": "not fulfilled"}
{"smilesStructure": "C[Si](C)(c1cccs1)c1ccccc1Cc1cnc2ccccc2c1", "assignedClass": "not fulfilled"}
{"smilesStructure": "CC[Si](C)(C)c1c(C#N)cccc1Oc1c(C)nc2c(F)c(F)ccc2c1[Si](C)(C)CC", "assignedClass": "fulfilled"}
{"smilesStructure": "C=C[Si](C)(C)c1c(F)cccc1Oc1cnc2ccccc2c1", "assignedClass": "fulfilled"}
{"smilesStructure": "C[Si](C)(C)c1ccccc1Cc1cnc2ccccc2c1", "assignedClass": "not fulfilled"}
{"smilesStructure": "C[Si](C)(C)c1c(F)cccc1Sc1cnc2ccccc2c1", "assignedClass": "fulfilled"}
{"smilesStructure": "Cc1nc2c(F)c(F)ccc2cc1Oc1cccc(F)c1[Si](C)(C)c1ccccc1", "assignedClass": "fulfilled"}
{"smilesStructure": "Cc1nc2ccccc2cc1Oc1ccc(C2CC2)cc1[Si](C)(C)C", "assignedClass": "fulfilled"}
{"smilesStructure": "C[Si](C)(C)c1c(F)cccc1C(=O)c1cnc2ccccc2c1", "assignedClass": "not fulfilled"}
{"smilesStructure": "Cc1nc2c(F)c(F)ccc2nc1Oc1c(Cl)cccc1[Si](C)(C)C", "assignedClass": "fulfilled"}
{"smilesStructure": "C[Si](C)(C)c1ccccc1Oc1cnc2c(F)cnn2c1", "assignedClass": "not fulfilled"}
